Measured apparent KD of MS2 coat protein values are reported for all entries that follow.
System: MS2 coat protein
Experiment: apparent KD of MS2 coat protein; designed switch direction (-1 OFF switch, 1 ON switch): -1; higher = weaker reporter binding
Conditions: input ligand: FMN 200 uM
Number in µM, nothing else.

Consider the worked cases shown below.
| biosequence | units | observed_value |
| --- | --- | --- |
| GGCGAAGUAGGAUAUACAUGAGGAUCACCCAUGUAACCUGAUGGCGUAGGUCUUCUAUGUAGAAGGGCUGCGCC [jl-ex3-4.38 ViennaUCT mod] (Eterna round: R97, puzzle: Exclusion 3) | µM | 0.016 |
| CUUUUGUGAGGAUAUUAGUAGUUUAUAAUUAAAAUUAUUACUGAGAAGGCACAUGAGGAUCACCCAUGUAAAAC [JR_Ex4_Sub029] (Eterna round: R97, puzzle: Exclusion 4) | µM | 0.122 |

Turning to the following sequence.
// recorded apparent KD of MS2 coat protein for ACAUGUAUUGCAGGAUAUGGGACACAUGAGGAUCACCCAUGUGACCAUAUGUAAUGCUAAGAGUCUCAGAAGGGUAUGUACAUG [Ex NG2 #45] (Eterna round: R96, puzzle: Exclusion NG 2) : 0.0107
